The following molecules are shown together with reported Cmax values.
Type: in vivo, Wistar rats
Conditions: male, Wistar, rat, plasma, po, 200 mg/kg
REPORTED_ENDPOINT: Cmax (ng/mL)

| ITEM_SMILES | RECORDED_NUMBER |
| --- | --- |
| C[C@]12CC[C@H](O)C[C@@]1(O)CC[C@@H]1[C@@H]2CC[C@]2(C)[C@@H](c3ccc(=O)oc3)CC[C@]12O | 4.84 |
| CC(=O)O[C@H]1[C@H]2O[C@]23[C@@H]2CC[C@@H]4C[C@@H](O)CC[C@]4(C)[C@H]2CC[C@]3(C)[C@H]1c1ccc(=O)oc1 | 7.29 |
| C[C@]12CC[C@H](O)C[C@H]1CC[C@@H]1[C@@H]2[C@H](O)C[C@]2(C)[C@@H](c3ccc(=O)oc3)CC[C@]12O | 84.4 |
| C[C@]12CC[C@H](O)C[C@H]1CC[C@@H]1[C@@H]2CC[C@]2(C)[C@@H](c3ccc(=O)oc3)CC[C@]12O | 7.08 |
| C[C@]12CC[C@H](O)C[C@H]1CC[C@@H]1[C@@H]2CC[C@]2(C)[C@@H](c3ccc(=O)oc3)[C@@H](O)[C@H]3O[C@]132 | 24.1 |
| C[C@]12CC[C@H](O)C[C@H]1CC[C@@H]1[C@@H]2CC[C@]2(C)[C@@H](c3ccc(=O)oc3)C[C@H]3O[C@]132 | 3.79 |

Data origin, for the record: paper PMC9073132
